experiment: antimalarial activity against Dd2 strain (AID 2302);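 further: 0% = DMSO untreated growth and 100% = chloroquine plus artemisinin killed control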; conditions: P. falciparum Dd2 in RBCs, LDH growth readout, 72 h; at 2 µM
Activity calls are given as the source filed them.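 How the source made its calls: active means growth inhibition above 50% at the single 2 µM test dose, taken to imply half-maximal potency below 2 µM; inactive means the rest.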
Possible outcomes: class 1 (active), class 0 (inactive)

{"compound": "CCCCCCCCc1c(C)[nH]c(C)c(I)c1=O", "assignedCategory": "class 1"}
{"compound": "CC1(C)N=C(N)NC(Nc2ccc(Cl)cc2)=N1", "assignedCategory": "class 0"}
{"compound": "COc1cc(N(Cc2ccccc2C)S(=O)(=O)Cc2ccccc2[N+](=O)[O-])c(OC)cc1Cl", "assignedCategory": "class 0"}
{"compound": "CCC[C@@H]([C@@H](CC1CCC(C)CC1)C(=O)N[C@@H](CCCCNC(=O)c1ccccn1)C(=O)Nc1nccs1)N(O)C=O (stereo not given in full)", "assignedCategory": "class 1"}
{"compound": "CC1CN(C(=O)c2sc3ccccc3c2Cl)CC(C)O1 (stereo not given)", "assignedCategory": "class 1"}

---

test: human hepatoma cell viability loss – ATP luminescence, cytotoxicity control for P. falciparum antimalarial project, primary screen (AID 2303); settings: HepG2 viability, 24-48 h, at 10 µM, stronger effect = higher value;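 further: 0% = DMSO wells and 100% = digitonin-killed cells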
Returns: string. Value is YES if measured inhibition is below 10%, and NO if it is greater than or equal to it.

{"compound": "CCc1ccc(CN2CCC(CN(c3ccc(N4CCOCC4)c(F)c3)S(=O)(=O)c3ccc(C(C)(C)CC)cc3)CC2)cc1", "assignedCategory": "NO"}
{"compound": "CC(=O)Nc1ccc(C#Cc2ccc(-c3c(C)[nH]c(C)c(Cl)c3=O)cc2)cc1", "assignedCategory": "YES"}
{"compound": "Clc1cc(Cl)c2cc(CN[C@H]3CCC[C@@H]3CNc3nc4ccccc4[nH]3)[nH]c2c1", "assignedCategory": "NO"}
{"compound": "Cc1cc(C)cc(OCC(O)CN(CCN2CCOCC2)C(=O)Nc2ccc(Br)cc2)c1 (centres undefined)", "assignedCategory": "YES"}
{"compound": "CC(CCc1ccccc1)NCC(O)c1ccc2c3c(cccc13)C(=O)N2C (centres undefined)", "assignedCategory": "NO"}
{"compound": "O=C(Nc1ccc(OC2CCN(Cc3ccccc3)C2)c(Cl)c1)c1cccs1 (centres undefined)", "assignedCategory": "NO"}
{"compound": "CCc1ccc(C(=O)NC(=O)c2ccccc2O)cc1", "assignedCategory": "YES"}
{"compound": "Cc1cc(-c2ccc3c(c2)CCN(CCC2CCC(NC(=O)/C=C/c4cccc(Cl)c4)CC2)CC3)on1 (centres undefined)", "assignedCategory": "NO"}

---

assay: inhibition of 3D7 malaria parasite growth – strain 3D7 (AID 2306);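 further: 0% = DMSO wells and 100% = chloroquine plus artemisinin control wells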; settings: P. falciparum 3D7 erythrocytic growth, LDH absorbance, 72 h; at 2 µM; stronger effect = higher value
# growth inhibition listing for each entry below

{"compound": "CCc1cccc(NC(=O)/C=C/c2ccc3c(c2)CN(C)CC3)c1", "growth inhibition (%)": 94}
{"compound": "CNCCCNCc1ccc(-c2ccc(F)c(Cl)c2)o1", "growth inhibition (%)": 100}
{"compound": "COc1ccc2nc3cc(Cl)ccc3c(NCCN(C)C)c2c1", "growth inhibition (%)": 102}
{"compound": "NC(N)=NN=Cc1cc([N+](=O)[O-])ccc1Sc1ccccc1CO", "growth inhibition (%)": 84}
{"compound": "CC1CCC(NCc2c(O)ccc3ccccc23)CC1 (stereo not given)", "growth inhibition (%)": 95}
{"compound": "COc1ccc2ncc(C#N)c(CCN3CCC(NCc4ccc5c(c4)OCCO5)CC3)c2c1", "growth inhibition (%)": 96}
{"compound": "CN(C)c1nc2cc(-n3cnc4cc(-c5ccc(Cl)cc5)sc4c3=O)ccc2n1CCCN1CCCC1", "growth inhibition (%)": 97}
{"compound": "CCc1cccc(C)c1-n1nc(-c2cc(C(C)(C)C)oc2C)cc1N", "growth inhibition (%)": 95}
{"compound": "COc1ccc2c(NN=Cc3ccccc3[N+](=O)[O-])cc(C)nc2c1", "growth inhibition (%)": 101}
{"compound": "CC(=O)N1N=C(c2ccc(F)cc2)Sc2c1nc(-c1ccccc1)n2C(C)=O", "growth inhibition (%)": 99}
{"compound": "COc1ccc(CNC2CCCC2)cc1-c1ccc(S(=O)(=O)NCCN2CCCC2)s1", "growth inhibition (%)": 96}
{"compound": "CN1CCN(c2ccnc3ccc(NC(=O)Nc4cccc5c(-c6ccncc6)cccc45)cc23)CC1", "growth inhibition (%)": 100}
{"compound": "COc1cc(NC(=O)/C=C/c2ccccc2Cl)cc(OCCN2CCC(O)(c3ccccc3)CC2)c1", "growth inhibition (%)": 102}
{"compound": "Cc1ncccc1C(=O)Nc1cccc(-c2cccc(-c3nc4ccc(C(F)(F)F)cc4[nH]3)c2)c1", "growth inhibition (%)": 96}
{"compound": "CCC(=O)c1cc(C(=O)NCCc2cccc(OC)c2)ccc1OC", "growth inhibition (%)": 83}
{"compound": "Cc1c(S(=O)(=O)Nc2cccc(CCN3CCCCC3CCN3CCCC3)c2)sc2ccc(Cl)cc12 (stereo not given)", "growth inhibition (%)": 93}
{"compound": "Cc1nnc2c(NC(=O)NC(C)C)cc3cc(-c4ccc(CN5CCCCC5)cc4)ccc3n12", "growth inhibition (%)": 87}
{"compound": "Cc1noc(-c2ccc3c(c2)CCN(CCC2CCC(NC(=O)/C=C/c4ccc(F)cc4)CC2)CC3)n1 (stereo not given)", "growth inhibition (%)": 91}
{"compound": "CC(C)(C)c1ccc(NC(=O)c2cccc(CN3CCCN(Cc4cccc(C#N)c4)CC3)c2)cc1", "growth inhibition (%)": 97}
{"compound": "O=C(c1ccc([N+](=O)[O-])o1)N1CCN(c2nc3c(Cl)cccc3s2)CC1", "growth inhibition (%)": 91}
{"compound": "COc1ccc(Cc2nc(N=C(N)Nc3ccccc3)ccc2OC)cc1", "growth inhibition (%)": 93}
{"compound": "CON(C)C(=O)[C@@H](CCCCNC(=O)OCc1ccccc1)NC(=O)OC(C)(C)C", "growth inhibition (%)": 98}
{"compound": "COc1ccc(-c2cccc(NC(=O)c3cccc(C#N)c3)c2)cc1CN1CCCC1", "growth inhibition (%)": 98}
{"compound": "CCn1c2ccccc2c2cc(Cc3cnc(N)nc3N)ccc21", "growth inhibition (%)": 94}
{"compound": "Cc1ncc(CN2CCC(C(=O)Nc3ccc(-c4nc5ccccc5o4)cc3)CC2)s1", "growth inhibition (%)": 82}
{"compound": "CC(C)N1CCN(CCCNc2c3ccccc3nc3ccccc23)CC1", "growth inhibition (%)": 100}
{"compound": "CC(=O)c1cccc2cc(C(=O)NC3CCC(CCN4CCc5ccc(C#N)cc5C4)CC3)[nH]c12 (stereo not given)", "growth inhibition (%)": 100}
{"compound": "CC(C)(C)Oc1ccc(CC2NC3(C(=O)N(Cc4ccc(C(C)(C)C)cc4)c4ccccc43)C3C(=O)N(c4ccc(Br)cc4)C(=O)C23)cc1 (stereo not given)", "growth inhibition (%)": 94}
{"compound": "FC(F)(F)c1cc(Nc2ccc(Oc3ccccc3)cc2)c2cc(-c3ccncc3)ccc2n1", "growth inhibition (%)": 102}
{"compound": "CC(C)C1C(O)=C(c2ccc3ccccc3c2)C(=O)N1CC1CCCCC1 (stereo not given)", "growth inhibition (%)": 84}
{"compound": "C[C@@H]1CN(c2cccc3c2nc(-c2cncc(C#N)c2)n3CCNCc2ccccc2)C[C@H](C)O1", "growth inhibition (%)": 83}
{"compound": "CC(C)N(Cc1ccc(-c2ccc(C(F)(F)F)cc2)cc1)C(=O)Cn1c(CCc2cccc(F)c2F)cc(=O)c2ccc(CCCN3CCCCC3)cc21", "growth inhibition (%)": 100}
{"compound": "Cc1cnc(NC(=O)c2cn(-c3ccccc3)nc2-c2cccs2)s1", "growth inhibition (%)": 91}
{"compound": "COc1ccc(Nc2nccc(NCC(O)c3ccc(C(F)(F)F)cc3)n2)cc1 (stereo not given)", "growth inhibition (%)": 98}
{"compound": "CCOc1cc(C(=O)Nc2cccnc2)ccc1-c1nc2cc(Cl)c(Cl)cc2[nH]1", "growth inhibition (%)": 100}
{"compound": "CC(C)Nc1nc(NCCc2cnc[nH]2)nc(NCc2cccc3ccccc23)n1", "growth inhibition (%)": 90}
{"compound": "CCCC(C)C(=O)N1CCOC(COCc2cccc(C(F)(F)F)c2)(c2ccc(Cl)cc2)C1 (stereo not given)", "growth inhibition (%)": 97}
{"compound": "COc1ccc(C(O)CNC(C)CCc2ccccc2)cc1C(F)(F)F (stereo not given)", "growth inhibition (%)": 99}
{"compound": "Cc1cc(N)cc2[nH]c(-c3ccc(N)cc3)nc12", "growth inhibition (%)": 96}
{"compound": "O=C(CN1CCN(S(=O)(=O)C=Cc2ccccc2)CC1)Nc1cc(C(F)(F)F)ccc1Cl", "growth inhibition (%)": 96}

---

molecular target: L-lactate dehydrogenase (Plasmodium falciparum (isolate CDC / Honduras)) (UniProt Q27743); experiment: PfLDH activity inhibition – cell lysate, 3D7 strain, counter-screen for P. falciparum growth inhibition project (AID 2304);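 further: 0% = vehicle and 100% = reference inhibitor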; conditions: P. falciparum 3D7 crude extract, LDH APAD/NBT absorbance; at 2 µM; stronger effect = higher value
Sequence (Q27743 whole entry, looked up): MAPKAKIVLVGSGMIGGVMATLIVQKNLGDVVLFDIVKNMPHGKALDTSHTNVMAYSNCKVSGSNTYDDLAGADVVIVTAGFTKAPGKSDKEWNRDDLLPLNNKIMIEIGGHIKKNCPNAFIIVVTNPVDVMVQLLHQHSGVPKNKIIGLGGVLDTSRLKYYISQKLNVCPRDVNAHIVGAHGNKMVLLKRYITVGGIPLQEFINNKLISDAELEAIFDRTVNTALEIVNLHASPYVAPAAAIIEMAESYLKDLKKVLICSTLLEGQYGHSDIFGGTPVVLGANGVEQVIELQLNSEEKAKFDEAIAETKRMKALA

{"compound": "O=C(Nc1ccccc1)OCCOc1ccc(CC2SC(=O)NC2=O)cc1 (stereo not given)", "inhibition [%]": -3}
{"compound": "N#Cc1ccc(/C=C/C(=O)NCCCCCN2CCN(C(=O)Nc3ccc(Cl)c(C(F)(F)F)c3)CC2)cc1", "inhibition [%]": -1}
{"compound": "O=C(/C=C/c1ccc(Cl)c(Cl)c1)NCCCCCN1CCC(NC(=O)Nc2cccc(F)c2)CC1", "inhibition [%]": 2}
{"compound": "CC(=O)Nc1nc(C(=O)Nc2ccc(-c3cccc(-c4nc5ccccc5[nH]4)c3)cc2)cs1", "inhibition [%]": -10}
{"compound": "O=C(NCCCCN1CC=C(c2ccc3c(c2OCC2CC2)CCCC3)CC1)c1ccc(-c2ccc(C(F)(F)F)cc2)cc1", "inhibition [%]": -10}
{"compound": "O=C(CCc1ccccc1)N[C@H](Cc1c[nH]c2ccccc12)C(=O)N1CCC(NCc2ccc3c(c2)Cc2ccccc2-3)CC1", "inhibition [%]": -6}
{"compound": "COc1ccc(N2CCN(CCc3ccc(NC(=O)c4ccc([N+](=O)[O-])cc4)cc3)CC2)c(OC)c1", "inhibition [%]": 1}
{"compound": "CC(=Nc1ccc(Cl)c(Cl)c1)N(C)C", "inhibition [%]": 2}
{"compound": "NC(N)=NC(=O)Nc1cc(Cl)c(Cl)c(Cl)c1", "inhibition [%]": 6}
{"compound": "NC(=O)C1CCN(Cc2cccc(-c3ccc(-c4nc5ccc(C(F)(F)F)cc5[nH]4)cc3)c2)CC1", "inhibition [%]": 8}
{"compound": "Oc1ccccc1CCNC1CCc2ccccc2C1 (stereo not given)", "inhibition [%]": 4}
{"compound": "CC(C)Oc1ccc(CCCON2C(N)=NC(N)=NC2(C)C)cc1", "inhibition [%]": 0}
{"compound": "C=CCC(C)n1ncc2c3c(N)nc(N)nc3ccc21 (stereo not given)", "inhibition [%]": -3}
{"compound": "c1ccc2c3c(ccc2c1)Sc1c(ccc2ccccc12)N3", "inhibition [%]": 0}
{"compound": "CN1c2ccc([N+](=O)[O-])cc2C(C)(C)C12C=Cc1cc(Br)cc([N+](=O)[O-])c1O2 (stereo not given)", "inhibition [%]": 1}
{"compound": "CN(C)Cc1cccc(-c2ccc(NC(=O)c3ccc4c(=O)n(CC5CCCO5)cnc4c3)cc2)c1 (stereo not given)", "inhibition [%]": 0}
{"compound": "Cc1cccc2[nH]c(-c3cc(-c4cccc(Cl)c4)cnc3N)nc12", "inhibition [%]": 2}
{"compound": "Cc1[nH]c(C)c(-c2ccc(C(=O)c3ccc(Cl)cc3)cc2)c(=O)c1Cl", "inhibition [%]": 4}
{"compound": "CCN(CC)C(=O)c1cnc(-c2ccccc2)nc1Oc1cccc(Cl)c1", "inhibition [%]": -3}
{"compound": "Cc1nc(N)nc(N)c1OCCCOc1cccc(Cl)c1Cl", "inhibition [%]": -2}

Origin of the recorded values: PubChem BioAssay
